system: OVCAR-8 ovarian; assay: NCI tumour cell line growth inhibition, 48 h
Consider the following compounds and their measured TGI readings.

| compound | TGI |
| --- | --- |
| O=S1(=O)c2cnccc2NC(=NCc2cccc3ccccc23)N1c1ccccc1 | > 100 µM |
| CCOP(=O)(OCC)C1CCCCOC1=O (stereo not drawn) | > 100 µM |
| C/C(=N\N)C(CN(C)C)C(c1ccccc1)c1c(O)c2ccccc2oc1=O (stereo not drawn) | > 100 µM |
| C=C1C(=O)C([Si](C)(C)C)=C2C=C(C)C3(CC3)C12C (stereo not drawn) | > 100 µM |
| CC1=C/C(=N\OCC(=O)O)CC(c2ccc(C(C)C)cc2)C1 (stereo not drawn) | > 100 µM |
| CCCN1C(=O)/C(=c2\sc3n(c2=O)C2C(NN=3)N(CC)C(=O)N2CC)c2ccccc21 (stereo not drawn) | 12.3 µM |
| CCOC(=O)/C(O)=C(/C=N\C(=S)Nc1ccccc1Cl)C(=O)OCC | > 100 µM |
| CCN(CC)c1ccc(/C=C/c2cc(C)c3ccccc3n2)cc1 | 55.8 µM |

---

test system: UACC-62 melanoma; test: NCI tumour cell line growth inhibition, 48 h
quantity measured: log10(TGI) (log10 of the value in µM)

| compound | log10(TGI) |
| --- | --- |
| CCCC(O)[C@@H](O)c1ccc2c(c1O)C(=O)c1c(OC)cccc1C2=O (some centres undefined) | 1.79 |
| O=C(NO)c1ccc([N+](=O)[O-])cc1 | 1.70 |
| NC(=O)[C@H]1CCN(c2ncnc(N)c2F)C[C@@H]1N1CCC[C@@H](Nc2cc(Cl)cc(C(F)(F)F)c2)C1=O | 1.47 |
| COc1cc2c(cc1OC)-c1ccc3cc4c(cc3c1N(CCN1CCCC1)C2)OCO4 | 0.48 |
| CC1(C)CCC2(C(=O)OC3OC(CO)C(O)C(O)C3O)CC[C@]3(C)C(=CCC4C5(C)CC[C@H](OC6OC(C(=O)O)C(O)C(O)C6O)C(C)(C)C5CCC43C)C2C1 (some centres undefined) | 0.28 |
| C[C@]12CC[C@H]3[C@@H](CCC4=CC(=O)CC[C@@H]43)[C@@H]1CC[C@@H]2OC(=O)N(CCCl)N=O | 1.26 |
| COc1cc(OCc2ccc3nc(-c4ccccc4)c(N)nc3c2)cc(OC)c1OC | 1.45 |
| Cn1c(O)c(C(=O)Nc2cccs2)c(=O)[nH]c1=S | 1.43 |

---

test system: HCT-15 colon; assay: NCI tumour cell line growth inhibition, 48 h
Where a SMILES comes first, the peptide text is derived from it. [ ]: non-standard residue; d: D form. Phe(F5) = N[CH](Cc1c(F)c(F)c(F)c(F)c1F)C(=O)O
Quick reference for TGI among some compounds

| compound | TGI |
| --- | --- |
| CCCN(Cc1ccc(F)cc1)c1ccc(CO)c(Cl)c1 | 19.8 µM |
| O=C1NC(N2CCOCC2)=N/C1=C\c1cccs1 | > 100 µM |
| CN1CCc2c1nc(-c1ccccc1)c1c2N(C)CC1 | > 100 µM |
| COc1cccc(OC(=O)c2ccccc2Nc2ccnc(C(F)(F)F)c2)c1 | 12 µM |
| C=C(c1ccccc1)C1ON(C)CCc2cc(OC)c(OC)cc21 (stereo not given) | > 100 µM |
| O=S(=O)(c1ccc(NC(=S)NCc2cccnc2)cc1)N1CCCCC1 | > 100 µM |
| C=C1C(=O)O[C@@H]2C1CC(=O)C(C)CC/C=C(\C)CCC[C@H](C)[C@H]2OC(C)=O (stereo not given in full) | 30.4 µM |
| CCOC(=O)C=C1CCN(C(=O)c2ccccc2)CC1 | > 100 µM |
| CC[C@H](Nc1nc(N)nc(C)c1C#N)c1nc2cccc(CN(C)c3ncc(C(=O)NO)cn3)c2c(=O)n1-c1ccccc1 | 12 µM |
| C[C@H]1[C@H](C)N(Cc2ccccc2)P(=O)(C(O)/C=C/c2ccccc2)N1Cc1ccccc1 (stereo not given in full) | > 25 µM |
| CCc1nnc(CC)n1NCCCC(=O)O | > 100 µM |
| COc1cc(/C=C\c2ccccn2)cc(OC)c1OC | > 100 µM |
| COC(=O)C(CC(C)C)NC(=O)C(Cc1cnc[nH]1)NC(=O)CNC(=O)C(NC(=O)C(C)NC(=O)C(Cc1c[nH]c2ccccc12)NC(=O)C(CCC(=O)O)NC(=O)C(N)Cc1c(F)c(F)c(F)c(F)c1F)C(C)C (stereo not given) (H-[Phe(F5)]EWAVGHL-OMe; configuration not given here) | > 100 µM |
| COc1ccc2c(c1)CCC1C2CCC2(C)C1CCC2(O)CNC(=O)CCCCC1CCSS1 (stereo not given) | > 100 µM |
| COc1cc(NC(C)=O)c2[nH]c3c(C)cc(NC(C)=O)c(C)c3c2c1 | > 100 µM |
| COc1ccccc1C1CC(=O)CC(c2ccccc2OC)C12C(=O)NC(=S)NC2=O (stereo not given) | > 100 µM |
| O=C(NCCCCCCNC(=O)c1cccc2ccccc12)c1cccc2ccccc12 | > 100 µM |
| CN(C)c1ccc2nc3ccc(=[N+](C)C)cc-3oc2c1 | > 100 µM |
| CCOC(=O)c1nc2ccc(C(F)(F)F)cc2nc1NCc1ccc(Cl)c(Cl)c1 | > 100 µM |
| CC(=O)[O][Pb]([O]C(C)=O)([c]1ccccc1)[c]1ccccc1 | > 100 µM |
| COc1cc2c(/C=C3/C(=O)Nc4ccc(Cl)cc43)c(Cl)n(Cc3ccccc3)c2cc1C | 17.8 µM |
| COc1ccc(OC)c2sc(N3C(=O)/C(=C/Cc4ccco4)N=C3c3ccccc3)nc12 | > 100 µM |
| CCOC(=O)c1cc(Sc2ccc(N)c(C(=O)OCC)c2)ccc1N | > 100 µM |
| Nc1ccn(C2CC(O)C(COP(O)(=S)OC3CC(n4ccc(N)nc4=O)OC3CO)O2)c(=O)n1 (stereo not given) | > 100 µM |
| O=c1cc(CNc2cc(F)cc(F)c2)c2ccc(I)cc2[nH]1 | > 100 µM |
